Tested on: HCV genotype 1a (H77 strain) replicon in HUH-7 cells
Assay: HCV replicon luciferase reporter assay, genotype 1a
Format: cell-based
Settings: Hepatitis C virus, Huh-7, 72 h, HCV genotype 1a replicon luciferase, 3 days incubation, range class, read-out: LE_1a (EC50, range)
pEC50: −log10 of the molar value.
# pEC50 per record follows

[2H]C([2H])([2H])C(C)(OC(=O)N[C@@H]1C(=O)N2C[C@H](Oc3nccc4cc(OC)ccc34)C[C@H]2C(=O)N[C@]2(C(=O)NS(=O)(=O)C3(C)CC3)C[C@H]2/C=C\CC[C@H](C)C[C@H]1C)C([2H])([2H])[2H]	6.99 to 8.32

Query: What does the data say about its pEC50? Entry: "COc1ccc2c(O[C@@H]3C[C@H]4C(=O)N[C@]5(C(=O)NS(=O)(=O)C6CC6)C[C@H]5/C=C\CC[C@@H](C)C[C@@H](C)[C@H](NC(=O)O[C@@H]5C[C@@H]6C[C@@H]6C5)C(=O)N4C3)nc(-c3ccc(OC(C)C)nc3)cc2c1"
Response: > 8.26

Query: What does the data say about its pEC50? Entry: "CCCOc1ccc2c(O[C@@H]3C[C@H]4C(=O)N[C@]5(C(=O)NS(=O)(=O)C6CC6)C[C@H]5/C=C\CC[C@@H](C)C[C@@H](C)[C@H](NC(=O)OC(C(F)(F)F)(C(Cl)(Cl)Cl)C(Cl)(Cl)Cl)C(=O)N4C3)nccc2c1"
Response: > 8.26

Query: What does the data say about its pEC50? Entry: "COc1ccc2c(O[C@@H]3C[C@H]4C(=O)N[C@]5(C(=O)NS(=O)(=O)C6CC6)C[C@H]5/C=C\CC[C@H](C)C[C@@H](C)[C@H](NC(=O)O[C@@H]5C[C@@H]6C[C@@H]6C5)C(=O)N4C3)nc(-c3ccc(OC(C)C)cn3)cc2c1"
Response: > 8.26

Query: What does the data say about its pEC50? Entry: "C[C@H]1CC/C=C\[C@@H]2C[C@@]2(C(=O)NS(=O)(=O)C2CC2)NC(=O)[C@@H]2C[C@@H](Oc3nccc4c5c(ccc34)OC(F)(F)O5)CN2C(=O)[C@@H](NC(=O)O[C@@H]2C[C@@H]3C[C@@H]3C2)[C@H](C)C1"
Response: 6.99 to 8.32

Query: What does the data say about its pEC50? Entry: "C[C@@H]1CC/C=C\[C@@H]2C[C@@]2(C(=O)NS(=O)(=O)C2(CF)CC2)NC(=O)[C@@H]2C[C@@H](Oc3nccc4c5c(ccc34)OCCO5)CN2C(=O)[C@@H](NC(=O)OC(C)(C)C)[C@H](C)C1"
Response: > 8.26

Query: What does the data say about its pEC50? Entry: "CC[C@@H]1C[C@H](C)CC/C=C\[C@@H]2C[C@@]2(C(=O)NS(=O)(=O)C2(C)CC2)NC(=O)[C@@H]2C[C@@H](Oc3nc4c(c5ccccc35)OCCC4)CN2C(=O)[C@H]1NC(=O)OC(C)(C)C(F)(F)F"
Response: > 8.26
